- Tested on: UACC-257 melanoma
- Assay protocol: NCI-60 one-dose screen, 48 h (100 = growth as untreated, 0 = no growth, -100 = all killed)
- Measurement setup: 10 µM unless noted
Compounds without any hit were thinned out: in the full panel of roughly 83,000, 20% have a hit.
Measure: growth (%)
Answers are plain numbers, in %.

{"Compound": "CN1CCN(c2ccc3nc(-c4ccc5nc(-c6ccc(C(F)(F)F)cc6)[nH]c5c4)[nH]c3c2)CC1", "growth / %": 87.2}
{"Compound": "CCN1C(=O)C2(Nc3ccccc3S2)c2cc(C)ccc21 (stereo not given)", "growth / %": 101}
{"Compound": "O=C(N/N=C/c1ccc2c(c1)OCO2)c1cnn2c1NC(c1ccccc1)C2 (stereo not given)", "growth / %": 72.4}
{"Compound": "Cc1ccc(S(=O)(=O)N2CCc3ccc(O)c4c3C2Cc2cc(Cl)ccc2-4)cc1 (stereo not given)", "growth / %": 63.4}
{"Compound": "Cc1ccc(S(=O)(=O)N2CCc3ccc(O)c4c3C2CCc2ccccc2-4)cc1 (stereo not given)", "growth / %": 105}

# batch: return growth for each of the 5 compounds below
1. COc1nc2c(cc1S(=O)(=O)c1ccccc1)CCc1c-2cnn1-c1cccc(Cl)c1
2. O=C1C2CC3C(CC2C(=O)[N]1[Sn]([c]1ccccc1)([c]1ccccc1)[c]1ccccc1)C1(Cl)C(Cl)=C(Cl)C3(Cl)C1(Cl)Cl (stereo not given)
3. CCN(CC)c1ccc(/C=C(\C#N)c2cc3ccccc3[nH]2)cc1
4. Cc1ccc(C2SCC(=O)N2NC(=O)c2[nH]c3ccc(F)cc3c2-c2ccccc2)cc1 (stereo not given)
5. CC(=O)Nc1ccc(Sc2ccc([N+](=O)[O-])o2)cc1

A)
[78.7, -99.3, 81.5, 86.9, -43.4]

====

- System: RXF 393 renal
- Assay protocol: NCI-60 one-dose screen, 48 h (100 = growth as untreated, 0 = no growth, -100 = all killed)
- Measurement setup: 10 µM unless noted
Compounds without any hit were thinned out: in the full panel of roughly 83,000, 20% have a hit.
Measure: growth (%)
Numbers only, in %.

# batch: return growth for each of the 3 compounds below
1. Cc1nc2cc(Nc3nc(Nc4ccc(F)cc4)nc(N4CCN(C)CC4)n3)ccc2n1Cc1ccccc1
2. C[C@H]1C(=O)C23CCC1C[C@@]21O[C@@H]2C(C)(C)C=CC(=O)C23COC1=O
3. C=C[C@H]1C[C@@H]2C[C@@H]3[C@H]4C/C=C\C(=O)NCCCC5NC(=O)C(=C(O)/C=C/[C@@H]4CC(=O)[C@H]3[C@@H]2[C@H]1C)C5=O (stereo not given in full)

A)
1. -82.7
2. 108
3. -85.6

# batch: return growth for each of the 2 compounds below
1. Cc1cc(C)c(S(=O)O)c(C)c1
2. CCCCC1COc2cccc3c(SCC(=O)N(C)c4cccc5ccccc45)cc[n+]1c23 (stereo not given)

A)
1: 101; 2: 115

====

- Test system: SNB-75 CNS
- Assay protocol: NCI-60 one-dose screen, 48 h (100 = growth as untreated, 0 = no growth, -100 = all killed)
- Measurement setup: 10 µM unless noted
Compounds without any hit were thinned out: in the full panel of roughly 83,000, 20% have a hit.
Please provide measured growth for the entries that follow.
Give bare numbers, in %.

The examples below pair each entry with its known result.
{"Compound": "Clc1ccc(C2=Nc3cccc4cccc(c34)N2)cc1Cl", "growth [%]": 77.5}
{"Compound": "NC(=O)c1cc(I)ccc1NC(=O)COc1ccccc1", "growth [%]": 30.8}
{"Compound": "Cc1nc(NN)c([N+](=O)[O-])c(NN)n1", "growth [%]": 114}
{"Compound": "NS(=O)(=O)c1ccc(C(=O)N/N=C(\\CS(=O)(=O)c2ccccc2)c2cc3cc(Br)ccc3o2)cc1", "growth [%]": 56.1}
{"Compound": "c1ccc(-c2nc(N3CCOCC3)c3c4c(sc3n2)CCCCCC4)nc1", "growth [%]": 29.4}
{"Compound": "CCN(CC)c1ccc2c(c1)OS(=O)(=O)N=C2", "growth [%]": 87.9}
{"Compound": "COc1cc(-c2ccc3cc(OC)c(OC)c(OC)c3c2)cc(OC)c1OC", "growth [%]": 49.1}
{"Compound": "COc1ccc(-c2cc(=O)oc3c4c(ccc23)OCN(Cc2ccc(F)cc2)C4)cc1", "growth [%]": 69.7}

Proceed to the following item.
Q) Form entry - test system: SNB-75 CNS; read-out: growth; compound: C[C@@H](Oc1cc(-c2cnn(C3CC4(CCCNC4)C3)c2)cnc1N)c1c(Cl)ccc(F)c1Cl (some centres undefined)
A) 10.3

====

Please provide measured growth for the entries that follow.
- Tested on: SK-MEL-5 melanoma
- Assay protocol: NCI-60 one-dose screen, 48 h (100 = growth as untreated, 0 = no growth, -100 = all killed)
- Measurement setup: 10 µM unless noted
This is part of a sample that, as a whole, favours compounds with a hit. Of some 83,000 tested, about 20% had one in any assay.
Give bare numbers, in %.

The examples below pair each entry with its known result.
{"Structure smiles string": "COc1nc2c(cc1S(=O)(=O)c1ccccc1)CCc1c-2cnn1-c1ccccc1Cl", "System": "SK-MEL-5 melanoma", "growth, %": 68}
{"Structure smiles string": "COc1ccc(Cn2c(Br)c3c(c2-c2cc(OC)c(OC)c(OC)c2)CCc2sc(N)nc2-3)cc1", "System": "SK-MEL-5 melanoma", "growth, %": 10.1}

Q) growth lookup needed for CCCN(CCC)c1ccc(/C=C/c2ccc3cc(OCC)ccc3n2)cc1 , thanks.
A) 78.3

====

Please provide measured growth for the entries that follow.
- Test system: HOP-62 NSCLC
- Assay protocol: NCI-60 one-dose screen, 48 h (100 = growth as untreated, 0 = no growth, -100 = all killed)
- Measurement setup: 10 µM unless noted
About 83,000 compounds went through this panel and 20% of them were active in at least one assay; those are over-represented in the sample as a whole. Calls of active or inactive are those of the source. Rule for the calls: active = growth percent below 10; inactive = the rest.

The examples below pair each entry with its known result.
{"Compound": "CC(C)(C)[Si](C)(C)OC1[C@@H](COC(=O)NC(=O)CCl)O[C@@H](n2cnc3c(N)ncnc32)[C@H]1O[Si](C)(C)C(C)(C)C (stereo partly specified)", "Reported": "81.9% (inactive)"}
{"Compound": "Cc1c(NCC(=O)Nc2nc3ccccc3[nH]2)c(=O)n(-c2ccccc2)n1C", "Reported": "107% (inactive)"}
{"Compound": "COC(=O)c1c2c(c(C)[n+]([O-])c1C)C(=O)C=C(NCc1cccc(OC)c1)C2=O", "Reported": "-15.1% (active)"}
{"Compound": "COc1ccc(C(=O)C2=CC(=O)C(=O)C2)cc1OC", "Reported": "94.1% (inactive)"}
{"Compound": "CC1=C(C/C=C(\\C)CCC[C@H](C)CCC[C@H](C)CCCC(C)C)C(=O)c2ccccc2C1=O", "Reported": "115% (inactive)"}

# batch: return growth for each of the 6 compounds below
1. O=[N+]([O-])c1ccc(C=C2C(Cl)=C(Cl)C(Cl)=C2Cl)cc1
2. COc1ccc(C2SC(C)C(=O)N2CCc2cccs2)cc1OC (stereo unspecified)
3. COc1cc(NC(=O)COc2ccccc2)c(C(N)=O)cc1OC
4. CN1CCC(OC2c3ccccc3CCc3ccccc32)CC1
5. COc1ccc(/C=N/NC(=O)c2cnn(CC(O)Cc3ccccc3)c2N)cc1OC1CCCC1 (stereo unspecified)
6. COc1ccc(/C=C2\CN(Cc3cn(CCCNc4ccnc5cc(Cl)ccc45)nn3)C/C(=C\c3ccc(OC)cc3)C2=O)cc1

A)
1: 78.3% (inactive); 2: 94.5% (inactive); 3: 30.5% (inactive); 4: 93.8% (inactive); 5: 85.5% (inactive); 6: 63.6% (inactive)

====

- System: SF-539 CNS
- Assay protocol: NCI-60 one-dose screen, 48 h
- Measurement setup: 10 µM unless noted
About 83,000 compounds went through this panel and 20% of them were active in at least one assay; those are over-represented in the sample as a whole. Activity calls are given as the source filed them. The calls were made as follows: active = growth percent below 10; inactive = the rest.
Choose one outcome from this list and give only that: 1 for active, 0 for inactive

{"Structure smiles string": "Clc1ccccc1Nc1ccc2nnc(-c3ccncc3)n2n1", "Assigned category": 0}
{"Structure smiles string": "COc1cc2nc(SCc3cc(OC)c(OC)c(OC)c3)n(-c3ccccc3OC)c(=O)c2cc1OC", "Assigned category": 0}
{"Structure smiles string": "NS(=O)(=O)c1cc(Br)c2c(c1)S(=O)(=O)NCN2", "Assigned category": 0}
{"Structure smiles string": "CCCCCCCC/C=C\\CCCCCCCCOc1cccc(CC(=O)NCC[N+](C)(C)C)c1", "Assigned category": 0}

Q) Write down the call the test reported for this compound. Item: Oc1ccc(Cl)cc1CNc1nc2ccccc2[nH]1
A) 1

Q) Write down the call the test reported for this compound. Item: Oc1ccccc1/C=N/Nc1nc2ccccc2s1
A) 0

Q) Write down the call the test reported for this compound. Item: COc1ccc(-c2nn(-c3ccc(NC(=O)c4ccc(Cl)c(Cl)c4)cc3)cc2-c2ccncc2)cc1Cl
A) 0

Q) Write down the call the test reported for this compound. Item: Cc1nn(-c2ccccc2)c2nc3nc4c(c(N)c3c(-c3ccc(Cl)cc3)c12)CCC4
A) 0

Q) Write down the call the test reported for this compound. Item: CCCCCCCCCCCCCCn1c2ccccc2c2c3c(c4c5cc(OC)ccc5oc4c21)C(=O)NC3=O
A) 0
